measurement.target: HIV-1LAI envelope gp120 labeled with radioactive iodine (HIV-1 LAI), P03377
measurement.protocol: 125I-gp120, peptide array
property.name: counts minus background (counts per 20 min)

>>> observed("YSLVFIFGFVGNMLVILI (modifications not checked) [CCR5 37-54]")
347
>>> observed("AARLLPPLYSLVFIFGFV (modifications not checked) [CCR5 29-46]")
33
>>> observed("GVVTSVITWVVAVFASLP (modifications not checked) [CCR5 145-162]")
69
>>> observed("FFIILLTIDRYLAVVHAV (modifications not checked) [CCR5 117-134]")
77
>>> observed("RNEKKRHRAVRLIFTIMI (modifications not checked) [CCR5 225-242]")
23
>>> observed("DDRYICDRFYPNDLWVVV (modifications not checked) [CXCR4 181-198]")
125
>>> observed("LLTIDRYLAVVHAVFALK (modifications not checked) [CCR5 121-138]")
31
>>> observed("AQHALTSVSRGSSLKILS (modifications not checked) [CXCR4 313-330]")
147
>>> observed("HFPYSQYQFWKNFQTLKI (modifications not checked) [CCR5 181-198]")
1010
>>> observed("LILAFISLDRYLAIVHAT (modifications not checked) [CXCR4 125-142]")
107
>>> observed("NYYTSEPCQKINVKQIAA (modifications not checked) [CCR5 13-30]")
6
>>> observed("SVITWVVAVFASLPGIIF (modifications not checked) [CCR5 149-166]")
46
>>> observed("LLFVITLPFWAVDAVANW (modifications not checked) [CXCR4 85-102]")
63
>>> observed("DRYLAIVHATNSQRPRKL (modifications not checked) [CXCR4 133-150]")
168
>>> observed("LVFFQKHIAKRFCKCCSI (modifications not checked) [CCR5 309-326]")
76
